Provide the reported Day 12 Donors of each item.
# Test system: autologous responder cells (monocyte-depleted PBMC) from HLA-A*0201-negative donors
# assayExplanation: Induction of pentamer positive CD8+ T cells by peptide-pulsed HLA-A*0201-transfected moDC (Example 8)
# Format: cell-based, human
# conditionInfo: donors with positive response / donors tested, day 12

Input: Request - read-out Day 12 Donors | tested on autologous responder cells (monocyte-depleted PBMC) from HLA-A*0201-negative donors | sequence KLGGDLLRA (homo sapiens) [Peptide 129, from CD18]
Output: 0/2

Input: Also check KLMSPKLYV (homo sapiens) [Peptide 55, from CD19]
Output: 1/2

Input: Also check FVANAIIHL (homo sapiens) [Peptide 111, from CD52]
Output: 0/2

Input: Also check LVAPRFLEV (homo sapiens) [Peptide 85, from CD50]
Output: 1/4

Input: Also check SMLDDLRNV (homo sapiens) [Peptide 24, from CD18]
Output: 0/2

Input: Also check ALPAALAVI (homo sapiens) [Peptide 127, from CD7]
Output: 0/2

Input: Also check ILFAFVSSV (homo sapiens) [Peptide 25, from FLT3]
Output: 1/2

Input: Also check LLLTISLLV (homo sapiens) [Peptide 81, from CD52]
Output: 0/2

Input: Also check SVDPRIANV [82] (homo sapiens) [Peptide 82, from MPO]
Output: 1/2

Input: Also check LMGTLIAKV (homo sapiens) [Peptide 83, from HA-1]
Output: 0/2

Input: Also check LLLPLLLAL (homo sapiens) [Peptide 28, from CD7]
Output: 1/2

Input: Also check ALYDKTKRI (homo sapiens) [Peptide 115]
Output: 0/2

Input: Also check FLDCQIHRV (homo sapiens) [Peptide 7, from CD127]
Output: 0/2

Input: Also check YLGYTVTWL (homo sapiens) [Peptide 93, from CD11a]
Output: 1/2
